Reference source for all entries: patent US20230095569A1

- test-target: T1, human Claudin18.2 (CLDN18.2) (human, UniProt P56856 1-261)
- T1 construct: the cell line is named under assay; also called human Claudine18.2; hClaudin18.2
- assay-details: FACS on CHOK1-18.2 cells
Give EC50 for every item shown.
Numbers only, in nM.

>  <binder>
chAb24 (antibody, V domains shown) VH: EVKLVESGGGLVKPGGSLKLSCAGSGFTFSSYTMSWVRQTPEKRLEWVATITIGVNIYYLDSVKGRFTISRDNAKNTLYLQMNSLRSEDTALYYCTRLGQTQRNAMDYWGQGTSVTVSS VL: DIVMTQSPTSLSVSAGEKVTMTCKSSQSLFNSGNQKNYLAWYQEKPGQPPKLLIYGASTRESGVPDRFTGSGSGTDFTLTISSVQAEDLAVYYCQNVHFYPFTFGAGTKLEL

>  <value-unit>
nM

>  <assay-value>
4.99

$$$$

Okay, next one:
Answer with the recorded EC50 of chAb31 (antibody, V domains shown) VH: QIQLAQSGPELKKPGETVKISCKASGYSFTNYGMNWVKQAPGKGLKWMGWINTYSGETKYADDFKGRFDFSLETSARTAYLQIKNLKIEDTATYFCARRDAMDYWGQGTSVTVSS VL: DIVMTQAAPSVPVTPGESVSISCRSSKSLLNSNGNTYLYWFLQRPGQSPQLLIYRMSNLASGVPDRFSGSGSGTAFTLRISRVEAEDVGVYYCMQHLEFPFTFGSGTKLEIK only.
5.17
